rel. potency GFP inhibition values for the compounds below.
- System: coronin 1 promoter
- assay.method.text: EC50 analysis for coronin 1 promoter driven GFP inhibition by flow cytometry in RBL cells
- Type: cell-based
- cond: [EC50 GFP inhibition 13a]/[EC50 GFP inhibition compound of interest]; 13a = 1.00
- Protocol: RBL cells that had been incubated with the indicated calcium channel blockers (amlodipine (3.125 μM) and verapamil (8 μM) concentrations for 48 h were analyzed by flow cytometry for any alteration in coronin 1 promoter driven GFP fluorescence. The results reveal no effect of calcium channel blockers on coronin 1 promoter activity (FIG. 4). […]
reported.property: rel. potency GFP inhibition

>  <compound>
CCCCCCOCCOCCOCCOC(=O)C1=C(C)NC2=C(C(=O)C[C@H](c3ccccc3OC)C2)[C@@H]1c1cccc(O)c1 [65a]

>  <value.observed>
0.12

$$$$
>  <compound>
CCC(CC)COC(=O)C1=C(C)NC2=C(C(=O)C[C@H](c3ccccc3OC)C2)[C@@H]1c1cccc(O)c1 [61a]

>  <value.observed>
0.10

$$$$
>  <compound>
COc1ccccc1[C@@H]1CC(=O)C2=C(C1)NC(C)=C(C(=O)OC1CCOCC1)[C@@H]2c1cccc(O)c1 [13d]

>  <value.observed>
0.09

$$$$
>  <compound>
COc1ccccc1[C@H]1CC(=O)C2=C(C1)NC(C)=C(C(=O)O[C@@H]1CCOC1)[C@H]2c1cccc(O)c1 [50b]

>  <value.observed>
1.23

$$$$
>  <compound>
COc1ccccc1[C@H]1CC(=O)C2=C(C1)NC(C)=C(C(=O)OC1(C)CCOCC1)[C@H]2c1cccc(O)c1 [51a]

>  <value.observed>
1.13

$$$$
>  <compound>
CCCCOC(=O)C1=C(C)NC2=C(C(=O)C[C@H](c3ccccc3OC)C2)[C@@H]1c1cccc(O)c1 [59a]

>  <value.observed>
0.18

$$$$
>  <compound>
COc1ccccc1[C@H]1CC(=O)C2=C(C1)NC(C)=C(C(=O)OC1CC(C)(C)OC(C)(C)C1)[C@H]2c1cccc(O)c1 [52a]

>  <value.observed>
0.62

$$$$
>  <compound>
COc1ccccc1C1CC(=O)C2=C(C1)NC(C)=C(C(=O)OC1CCOCC1)C2c1ccc(F)c(O)c1F (racemic) [67b]

>  <value.observed>
0.25

$$$$
>  <compound>
CCC(C)(C)COC(=O)C1=C(C)NC2=C(C(=O)C[C@H](c3ccccc3OC)C2)[C@@H]1c1cccc(O)c1 [62a]

>  <value.observed>
0.10

$$$$
>  <compound>
COc1ccccc1[C@H]1CC(=O)C2=C(C1)NC(C)=C(C(=O)OC1CCOCC1)[C@H]2c1cccc(O)c1 [13a]

>  <value.observed>
1.00

$$$$

Where do these numbers come from? They come from patent US20260102387A1.
